Experimental target: T1, human prolactin receptor (PRLR) (human, UniProt P16471 25-622)
T1 sequence: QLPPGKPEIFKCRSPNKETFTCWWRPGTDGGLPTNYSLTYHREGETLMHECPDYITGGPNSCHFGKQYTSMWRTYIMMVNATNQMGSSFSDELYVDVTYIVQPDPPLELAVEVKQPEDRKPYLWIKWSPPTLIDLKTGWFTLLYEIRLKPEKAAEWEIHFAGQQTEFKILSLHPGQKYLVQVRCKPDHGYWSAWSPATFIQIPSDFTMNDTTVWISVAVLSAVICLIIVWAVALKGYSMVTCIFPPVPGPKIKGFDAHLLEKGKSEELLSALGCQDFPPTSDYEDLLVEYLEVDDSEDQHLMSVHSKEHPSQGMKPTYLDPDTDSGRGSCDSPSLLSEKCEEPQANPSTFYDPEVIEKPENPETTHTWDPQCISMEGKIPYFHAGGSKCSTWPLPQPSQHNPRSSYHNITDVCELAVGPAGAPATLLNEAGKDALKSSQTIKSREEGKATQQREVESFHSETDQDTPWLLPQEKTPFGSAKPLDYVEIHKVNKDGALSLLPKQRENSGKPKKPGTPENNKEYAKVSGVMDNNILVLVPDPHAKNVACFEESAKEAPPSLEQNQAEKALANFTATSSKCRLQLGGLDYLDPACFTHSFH
Procedure details: cell-based or functional assay
Readout: IC50, cell viability, MCF7/PRLR cells
Reply with the number, then its unit.

Sample records with IC50, cell viability, MCF7/PRLR cells:
[
  {
    "Binder": "H1H6803P-DM1 (antibody, human IgG1, V domains shown, DM1 conjugated through SMCC linker; attachment residues not stated) VH: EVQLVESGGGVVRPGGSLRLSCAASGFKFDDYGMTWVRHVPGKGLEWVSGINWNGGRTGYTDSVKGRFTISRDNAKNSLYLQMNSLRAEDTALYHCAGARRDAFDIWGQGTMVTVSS VL: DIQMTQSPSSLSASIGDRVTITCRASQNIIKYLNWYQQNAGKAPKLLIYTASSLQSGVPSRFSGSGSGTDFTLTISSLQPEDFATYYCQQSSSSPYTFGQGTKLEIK",
    "IC50, cell viability, MCF7/PRLR cells": "0.44 nM"
  },
  {
    "Binder": "H1H6765P-DM1 (antibody, human IgG1, V domains shown, DM1 conjugated through SMCC linker; attachment residues not stated) VH: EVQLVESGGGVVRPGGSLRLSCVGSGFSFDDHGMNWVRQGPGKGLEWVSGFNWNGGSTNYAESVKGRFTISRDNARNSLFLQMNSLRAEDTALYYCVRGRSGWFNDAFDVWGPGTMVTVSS VL: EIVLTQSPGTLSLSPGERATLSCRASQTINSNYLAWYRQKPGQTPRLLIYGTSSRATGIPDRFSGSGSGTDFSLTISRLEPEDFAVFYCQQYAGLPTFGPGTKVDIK",
    "IC50, cell viability, MCF7/PRLR cells": "0.18 nM"
  }
]

# input Param item = H1H6782P-DM1 (antibody, human IgG1, V domains shown, DM1 conjugated through SMCC linker; attachment residues not stated) VH: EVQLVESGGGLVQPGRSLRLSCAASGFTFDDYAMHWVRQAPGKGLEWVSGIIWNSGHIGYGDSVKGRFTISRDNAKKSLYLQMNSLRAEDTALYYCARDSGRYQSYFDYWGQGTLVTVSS VL: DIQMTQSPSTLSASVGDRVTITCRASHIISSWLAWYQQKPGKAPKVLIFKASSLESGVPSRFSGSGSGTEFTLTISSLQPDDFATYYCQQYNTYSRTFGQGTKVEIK ; retrieve measured IC50, cell viability, MCF7/PRLR cells.
# output 0.65 nM
